Tested on: OVCAR-5 ovarian
Assay: NCI tumour cell line growth inhibition, 48 h
Where a SMILES comes first, the peptide text is derived from it. The star is where a group is joined. Cbz = O=C(OCc1ccccc1)*; Boc = CC(C)(C)OC(=O)*; OBn = c1ccc(CO*)cc1
Please provide measured TGI for the entries that follow.

Consider the reported TGI for these molecules:
{"Molecule": "COC(=O)C(CCCCNC(=O)OCc1ccccc1)NC(=O)C(CCC(=O)OCc1ccccc1)NC(=O)OC(C)(C)C (stereo not drawn) (Boc-Glu(OBn)-Lys(Cbz)-OMe; configuration not given here)", "Result": "> 100 µM"}
{"Molecule": "CC(=O)NNc1nc(C)c(C(/C=C/c2ccc3c(c2)OCO3)=N/NC(=O)c2ccncc2)s1", "Result": "> 100 µM"}
{"Molecule": "[N-]=[N+]=NC1=C(N=[N+]=[N-])c2cccc3cccc(c23)C1=O", "Result": "> 100 µM"}
{"Molecule": "CC(=O)N(CCc1ccccc1)C(C)(C#N)c1ccccc1 (stereo not drawn)", "Result": "> 100 µM"}
{"Molecule": "N#CCCN(CCC#N)c1ccc(/C=C2\\N=C(c3ccccc3)N(NC(=O)c3ccncc3)C2=O)cc1", "Result": "> 100 µM"}

Would you mind giving TGI for every molecule in the list below?
1. CCN=C(N)CSS(=O)(=O)O
2. Cc1ccc(S(=O)(=O)OC(C=O)C(O)C(O)COC(c2ccccc2)(c2ccccc2)c2ccccc2)cc1 (stereo not drawn)
3. CSc1nc2ccccc2c(=O)n1-c1cccc(C)c1
4. Cn1cc(-c2csc(-c3cn(C)c4ncccc34)n2)c2ccccc21

["> 100 µM", "34.7 µM", "> 100 µM", "23.8 µM"]

Give measured TGI for every item shown.
1. COC(=O)/C=C1/OC(c2ccccc2)=CC1=O
2. COc1ccc2c(c1)C(=O)/C(=C/c1ccc(OCC(=O)c3ccc(Cl)cc3)cc1)O2
3. CC(=O)/C(=C\n1c(=S)[nH]c2ccc([N+](=O)[O-])cc21)C(=O)Nc1ccccc1C
4. Cc1c(O)c(OC2OC(CO)C(O)C(O)C2O)cc2c1CC[C@@H]1C2(C)C(=O)C[C@]2(C)[C@@H]([C@@](C)(O)C(O)CCC(C)(C)O)[C@H](O)C[C@@]12C (stereo partly drawn)
5. O=Cc1cc(O)ccc1Br
6. CCOC(=O)/C(C#N)=N\Nc1ccc(-n2c(C)nc3ccc(Br)cc3c2=O)cc1
7. CC1OC(OC2C(OC3CCC4(C)C(CCC5(C)C4CC=C4C6CC(C)(C)CCC6(CO)C(O)CC45C)C3(C)C)OC(C(=O)O)C(OC3OC(COC4OC(CO)C(O)C(O)C4O)C(O)C(O)C3O)C2O)C(O)C(O)C1O (stereo not drawn)

["36.9 µM", "23.9 µM", "> 100 µM", "> 100 µM", "> 100 µM", "> 100 µM", "16.7 µM"]

Please report TGI for every entry that follows.
1. CC(C)c1cc(C(C)C)c(P2(=O)CC3C(Cl)(Cl)C3(C)C2)c(C(C)C)c1 (stereo not drawn)
2. Cc1cc(C)c2c(c1C)CN1CN2Cc2c(C)c(C)cc(C)c21
3. COc1ccc2c(c1)CC[C@@H]1C2CC[C@]2(C)C(=O)N(C)C(=O)CC12 (stereo partly drawn)
4. NC(=O)OCc1c(O)c2c(c(O)c1COC(N)=O)C(=O)C=CC2=O
5. CCOC(=O)c1c(-c2ccccc2)[nH]c2ccccc2c1=O

["30.5 µM", "> 100 µM", "> 100 µM", "> 100 µM", "> 100 µM"]

Field: TGI. Fill in for each record below.
1. CCN(CC)c1ccc(/C=C/C2=[N+](C)c3ccccc3C2(C)C)cc1
2. CC1(C)CC[C@]2(C(=O)O)CCC3(C)C(=CCC4[C@@]5(C)CC[C@H](OC6OCC(O)C(O)C6OC6OC(CO)C(O)C(O)C6O)C(C)(C)C5CC[C@]43C)C2C1 (stereo partly drawn)
3. CC1(c2nc3ccccc3[nH]2)CCC(CO)C(C)(C)O1 (stereo not drawn)
4. CCCN=C1S/C(=C/c2ccc(OC)c(OC)c2)C(=O)N1c1ccccc1
5. Nc1cc2c3c(cccc3c1)C(=O)N(CCN1CCN(CCN3C(=O)c4cccc5cc(N)cc(c45)C3=O)CC1)C2=O
6. O=C1/C(=C/c2ccccc2Cl)COc2ccccc21
7. CC(=O)NC1C(OCc2ccccc2)OC(CO)C(O)C1OCC(=O)NC(C)C(=O)NC(CCC(=O)Nc1ccc2c(c1)CN1C(=O)c3ccccc3C1=N2)C(N)=O (stereo not drawn)

["23.7 µM", "6.93 µM", "> 100 µM", "> 100 µM", "> 100 µM", "32.4 µM", "> 100 µM"]

Provide each entry's TGI from the list below.
1. O=S(=O)(Nc1ccc2ccc3cccc4ccc1c2c34)c1ccccc1
2. c1ncc(C23C4C5C6C4C2C6C53)[nH]1 (stereo not drawn)
3. C=C1C(=O)OC2C3C(=C)[C@@H](OC(C)=O)CC3C(C)=CC(OC(=O)C(C)(O)C(C)OC(C)=O)[C@@H]12 (stereo partly drawn)
4. Cc1ccc(C)c(NC(=O)CCC(=O)CC(=O)C(C)(C)C)c1
5. CCOC(=O)C12CN(C34CC5CC(CC(C5)C3)C4)CC(C(=O)OCC)(C1=O)C(c1ccccc1)OC2c1ccccc1 (stereo not drawn)

1: > 100 µM; 2: > 100 µM; 3: 24.9 µM; 4: > 100 µM; 5: > 100 µM

Fill in TGI for each of the 5 molecules listed.
1. CNS(=O)(=O)NN(C)S(=O)(=O)c1ccc(C)cc1
2. Cc1ccc(CCCC(=O)O)cc1C
3. O=C(O)c1ccccc1/C=C1\Cc2ccc3c(c2C1=O)CCCC3
4. N/C(=N/O)c1cn(C2OC(CO)C(O)C2O)c2ncnc(NO)c12 (stereo not drawn)
5. COc1cccc(C2C3=C(COC3=O)N(CCO)c3cc4c(cc32)CCC4)c1 (stereo not drawn)

1: > 100 µM; 2: > 100 µM; 3: > 100 µM; 4: > 57.7 µM; 5: > 50 µM
